Listed below: melting point values for each entry.

// worked examples, melting point included
CCCCn1nnc2cc(C(=O)O)ccc21	192 °C
COc1cc(C=S2C=CN=C2N)c([N+](=O)[O-])cc1OC (stereo unspecified)	125 to 130 °C
Clc1ccc(/C=C/c2cc(Cl)cc(Cl)c2)cc1	94 to 96 °C

For CCOC(=O)CCC1Cn2c(-c3ccc(OC)cc3)c(C)c3cccc(c32)O1 (stereo unspecified) the compound record lists melting point as 154 °C

For Cc1cc(-c2cnn3c(C(F)(F)F)cc(-c4ccc(OCC(F)(F)F)c(C(F)(F)F)c4)nc23)ccn1 the compound record lists melting point as 210 °C

For COc1cc(OC)nc(OC)c1 the compound record lists melting point as 47 to 49 °C

For Cc1cccc(COCC2OC(n3cc(C(F)(F)F)c(=O)[nH]c3=O)CC2O)c1 (stereo unspecified) the compound record lists melting point as 169 to 171 °C

For Cc1cc(SC(C)C)c(NC(=O)CN2CCN(CCSc3nc4ccccc4[nH]3)CC2)c(SC(C)C)n1 the compound record lists melting point as 186 to 188 °C

For O=C(O)c1ccc(C(F)(F)F)cc1SC1CCCCC1 the compound record lists melting point as 115 to 116 °C

For CC(C)C[C@H](NC(=O)CCS)C(=O)O the compound record lists melting point as 131 to 132 °C

For O=S1(=O)c2cc(C=C(c3ccccc3)c3ccccc3)ccc2N(c2ccccc2)c2ccc(C=C(c3ccccc3)c3ccccc3)cc21 the compound record lists melting point as 269 to 274 °C

---

Listed below: melting point values for each entry.

Nc1nnc(-c2ccc(C(F)(F)F)cc2)cc1C(F)(F)F	186 to 190 °C

For c1ccc2c(c1)SCCc1c-2n(Cc2ccc(OCCCN3CCCCC3)cc2)c2ccccc12 the molecule record lists melting point as 70 to 71 °C

For c1ccc2c(c1)CC(CN1CCN(c3ccc4c(c3)OCC4)CC1)C2 the molecule record lists melting point as 171 to 173 °C

For CCNc1nc(C)c(C(=O)c2ccc(Cl)c([N+](=O)[O-])c2)s1 the molecule record lists melting point as 195 °C

---

READOUT TYPE: melting point

For O=C(CC[C@H]1CC[C@H](Nc2ncc3ncnc(Nc4ccc(F)c(Cl)c4)c3n2)CC1)N1CCOCC1 the molecule record lists melting point as 186 to 191 °C

---

READOUT TYPE: melting point

// worked examples, melting point included
CC(=O)Nc1cc(C)c(N)cc1C	133 to 135 °C
CCOC(=O)C(=O)CC(=O)c1cn(Cc2ccccc2)c2ccccc2c1=O	141 to 142 °C
CCN(c1nc(C)cc(C)n1)c1ccc(C(C)C)cc1SC	64 to 66 °C
O=C1NC(=O)C(=Cc2cccc(OCc3ccccc3)c2)S1	233 to 235 °C

For CNC(=O)[C@H]1S[C@@H](n2cnc3c(NC)nc(Cl)nc32)[C@H](O)[C@@H]1O the compound record lists melting point as 130 to 141 °C

---

READOUT TYPE: melting point

For O=C(CCNC(=O)c1ccccc1C(=O)O)NO the compound record lists melting point as 58 to 65 °C

---

Listed below: melting point values for each entry.

// worked examples, melting point included
C=CCOc1ccc(-c2nc3n(c2-c2ccc(OCC=C)cc2)CCS3)cc1	135 to 138 °C
CC1=NC(C)c2nnc(-c3ccc(Cl)cc3)n2-c2ccccc21 (centres undefined)	230 °C
Cn1nc(-c2ccc(C(=N)N)cc2)cc(C(=O)N[C@H]2CC[C@H](C(=O)O)CC2)c1=O	263 to 266 °C
O=[N+]([O-])c1n[nH]c(-c2ccc(C(F)F)c(C(SC(c3cc(-c4nc([N+](=O)[O-])n[nH]4)ccc3C(F)F)C(F)(F)F)C(F)(F)F)c2)n1 (centres undefined)	74 to 76 °C
CCc1cc(C(C)=O)c(O)cc1OCCCCCC(C)(C)C(N)=O	73 to 74 °C
S=c1c2c(ncn2Cc2cccnc2)c2cccnc2n1-c1ccccc1	222 to 224 °C
CCCc1nc2c(N)nc3cc(OCCCNC(=O)c4cccnc4)ccc3c2n1CC(C)C	172 to 174 °C
O=C(Nc1nc(C(F)(F)F)co1)C1c2ccccc2Oc2cc(F)ccc21 (racemic)	221 °C

For CCCCNC(=O)C(=O)Nc1ccc(OC)cc1[N+](=O)[O-] the compound record lists melting point as 127 to 128 °C

For CN1C(=O)Cc2cc3ccccc3cc2S1(=O)=O the compound record lists melting point as 126 to 127 °C

For CCCCCCCCCCNC(=O)c1cccc([N+](=O)[O-])c1 the compound record lists melting point as 86 to 88 °C

For COC(=O)c1cc2c3ccccc3n(C(C)=O)c2s1 the compound record lists melting point as 179 to 181 °C

For COc1ccc(CCN(C)C(=O)/C=C/c2cccnc2)cc1OC the compound record lists melting point as 84 to 86 °C

For CN(CCCc1ccc(F)cc1)[C@H]1CC[C@H](c2ccc3[nH]c(=O)oc3c2)CC1 the compound record lists melting point as 62 to 65 °C

---

Listed below: melting point values for each entry.

CSc1nc(-c2ccncc2)n(-c2ccc(F)cc2)c(=O)c1C#N	301 to 303 °C
COCCCn1nnnc1-c1cc(-c2cc(C(C)C)ccc2OC)c(O)cc1O	174 to 176 °C
CCNc1nc(NS(=O)(=O)c2ccc(N)cc2)cc(N2CCC2)n1	292 to 293 °C
O=C(Nc1cccnn1)N1CCN(c2nccc(-c3ccccc3F)n2)CC1	228 to 229 °C
O=C(c1cccc(Cl)c1)c1cccc(Cl)c1	117 °C
CC(C)n1nc(-c2c(-c3ccccc3)nn3ccc(N4CCN(C(=O)N(C)C)CC4)cc23)ccc1=O	160 to 161 °C
NNC(=S)c1ccccc1	66 to 68 °C
COc1cc(C(=O)NS(=O)(=O)c2ccccc2C)ccc1Cc1cccc2ccc(CCCC(=O)N(C)C)cc12	166 to 168 °C
COC(=O)/C=C/c1c(O)cccc1OCCCCC(=O)OC	97 to 98 °C
Nc1nc(OCCc2ccccc2Cl)nc2c1ncn2C1OC(CO)C(O)C1O (stereo unspecified)	158 to 161 °C

Now for a further compound.
For O=C(O)C=C1SC(=Nc2ccc(Br)c(Br)c2)N(c2ccc(Br)c(Br)c2)C1=O the compound record lists melting point as 235 to 237 °C

---

Listed below: melting point values for each entry.

CC(=O)c1cccc(-c2nc3sccn3c2-c2ccnc(N[C@@H]3CCCN(S(=O)(=O)c4ccc(Cl)cc4)C3)n2)c1	124 to 127 °C
Cc1c2cccc(-c3cccc(C(=O)NCCO)c3)c2nn1Cc1cccc(C(F)(F)F)c1	142 to 143 °C
Cc1ccc(S(=O)(=O)OC2CCc3c(c4ccccc4n3C)C2)cc1 (stereo not given)	104 to 106 °C
CCOC(=O)c1c(S(=O)(=O)Cc2nccn2C)nc2cc(OC)c(OC)cc2c1-c1ccc(OC)c(OC)c1	132 to 133 °C

Now for a further molecule.
For CCOC(=O)C(O)(CC(C)(C)c1cc(F)ccc1OC)C(F)(F)F (stereo not given) the molecule record lists melting point as 38 to 39 °C

---

READOUT TYPE: melting point

// worked examples, melting point included
O=C(O)c1cccc(-c2cccc3c2OC(Cc2cccc(C(F)(F)F)c2)C3)c1 (stereo unspecified)	156 to 157 °C
Cn1c2ccc(OCc3ccccc3)cc2c2c(CC(=O)N3CCCC3)nn(-c3ccccc3)c(=O)c21	203 to 204 °C
COc1ccc(C(=O)CCCCCN2CCC(CNC(=O)c3cc(Cl)c(N)cc3OC)CC2)cc1F	112 to 113 °C

For COc1cccc(OC)c1Cc1c(O)ncnc1O the compound record lists melting point as > 245 °C

For C=Cc1cc(C2=NCCO2)ccc1OCCCCCc1cc(C)no1 the compound record lists melting point as 116 to 117 °C

For N#Cc1ccc(N2CC(=O)NC2=O)c(-c2cccs2)c1 the compound record lists melting point as 189 °C

---

Listed below: melting point values for each entry.

// worked examples, melting point included
Cc1c(Cc2ccccc2)c(=O)oc2cc(O)cc(O)c12	258 to 260 °C
O=C(O)c1ccc(OCC(O)c2cc3ccccc3o2)cc1 (configuration not stated)	153 to 155 °C
O=P(O)(O)Cc1ccc(S(=O)(=O)c2ccccc2)cc1	217 to 219 °C
CC(=O)N1CCN(c2ccc(Nc3nccc(-c4sc(NCCc5ccccc5)nc4C)n3)cc2)CC1	212 to 213 °C
CC(C)(C)Oc1ccc(CCC(=O)O)cc1	29 to 31 °C

For NS(=O)(=O)c1ccc(C(=O)NCCc2ccccc2)cc1 the compound record lists melting point as 243 to 245 °C

For N#Cc1cc(-c2nccs2)nn1-c1ccc(NC(=O)c2ccncc2F)cc1 the compound record lists melting point as 210 to 211 °C

For COC(=O)c1ccc(S(C)(=O)=O)c(CC#N)c1Cl the compound record lists melting point as 151 to 155 °C

For CN1Cc2c(-c3noc(CN)n3)ncn2-c2ccccc2C1=O the compound record lists melting point as 192 to 195 °C

For O=C(O)C(=O)CC(=O)c1cccn1CCCCc1ccccc1 the compound record lists melting point as 119 to 121 °C
